experiment: total protein half-life in vivo (active degradation + dilution); higher = more stable protein; settings: wild type E. coli NCM3722; growth: N-lim chemostat; doubling time 6 h
In this section we review reported total protein half-life in vivo values for a set of sequences.
Report only the number, with the unit h understood.

QUERY_SEQUENCE	total protein half-life in vivo, h
MRILLSNDDGVHAPGIQTLAKALREFADVQVVAPDRNRSGASNSLTLESSLRTFTFENGDIAVQMGTPTDCVYLGVNALMRPRPDIVVSGINAGPNLGDDVIYSGTVAAAMEGRHLGFPALAVSLDGHKHYDTAAAVTCSILRALCKEPLRTGRILNINVPDLPLDQIKGIRVTRCGTRHPADQVIPQQDPRGNTLYWIGPPGGKCDAGPGTDFAAVDEGYVSITPLHVDLTAHSAQDVVSDWLNSVGVGTQW [P0A840]	4.5
MLKTIQDKARHRTRPLWAWLKLLWQRIDEDNMTTLAGNLAYVSLLSLVPLVAVVFALFAAFPMFSDVSIQLRHFIFANFLPATGDVIQRYIEQFVANSNKMTAVGACGLIVTALLLMYSIDSALNTIWRSKRARPKIYSFAVYWMILTLGPLLAGASLAISSYLLSLRWASDLNTVIDNVLRIFPLLLSWISFWLLYSIVPTIRVPNRDAIVGAFVAALLFEAGKKGFALYITMFPSYQLIYGVLAVIPILFVWVYWTWCIVLLGAEITVTLGEYRKLKQAAEQEEDDEP [P0A8K8]	7.67

Data point: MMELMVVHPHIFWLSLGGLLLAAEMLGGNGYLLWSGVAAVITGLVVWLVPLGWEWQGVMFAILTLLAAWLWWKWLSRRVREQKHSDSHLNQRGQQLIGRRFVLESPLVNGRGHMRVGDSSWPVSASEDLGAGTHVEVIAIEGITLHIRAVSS [P0AAS3] ; total protein half-life in vivo = 6.42

###

Each entry below carries its reported total protein half-life in vivo.
assay: total protein half-life in vivo (active degradation + dilution); higher = more stable protein; settings: wild type E. coli NCM3722; growth: C-lim chemostat; doubling time 6 h

QUERY_SEQUENCE	total protein half-life in vivo
MQLTSFTDYGLRALIYMASLPEGRMTSISEVTDVYGVSRNHMVKIINQLSRAGYVTAVRGKNGGIRLGKPASAIRIGDVVRELEPLSLVNCSSEFCHITPACRLKQALSKAVQSFLTELDNYTLADLVEENQPLYKLLLVE [P0AF63]	6.31 h

Here is the next item to consider.
Field total protein half-life in vivo (entry MNYEIKQEEKRTVAGFHLVGPWEQTVKKGFEQLMMWVDSKNIVPKEWVAVYYDNPDETPAEKLRCDTVVTVPGYFTLPENSEGVILTEITGGQYAVAVARVVGDDFAKPWYQFFNSLLQDSAYEMLPKPCFEVYLNNGAEDGYWDIEMYVAVQPKHH ) reads 3.9 h

###

Measured total protein half-life in vivo of individual entries
assay: total protein half-life in vivo (active degradation + dilution); higher = more stable protein; conditions: wild type E. coli NCM3722; growth: C-lim chemostat; doubling time 6 h
Kindly provide the numeric value in h only, without the unit symbol.

QUERY_SEQUENCE	UNIT_OF_MEASURE	total protein half-life in vivo
MKKSTLALVVMGIVASASVQAAEIYNKDGNKLDVYGKVKAMHYMSDNASKDGDQSYIRFGFKGETQINDQLTGYGRWEAEFAGNKAESDTAQQKTRLAFAGLKYKDLGSFDYGRNLGALYDVEAWTDMFPEFGGDSSAQTDNFMTKRASGLATYRNTDFFGVIDGLNLTLQYQGKNENRDVKKQNGDGFGTSLTYDFGGSDFAISGAYTNSDRTNEQNLQSRGTGKRAEAWATGLKYDANNIYLATFYSETRKMTPITGGFANKTQNFEAVAQYQFDFGLRPSLGYVLSKGKDIEGIGDEDLVNYIDVGATYYFNKNMSAFVDYKINQLDSDNKLNINNDDIVAVGMTYQF	h	5.98

Value of measured total protein half-life in vivo for the entry MKMNKSLIVLCLSAGLLASAPGISLADVNYVPQNTSDAPAIPSAALQQLTWTPVDQSKTQTTQLATGGQQLNVPGISGPVAAYSVPANIGELTLTLTSEVNKQTSVFAPNVLILDQNMTPSAFFPSSYFTYQEPGVMSADRLEGVMRLTPALGQQKLYVLVFTTEKDLQQTTQLLDPAKAYAKGVGNSIPDIPDPVARHTTDGLLKLKVKTNSSSSVLVGPLFGSSAPAPVTVGNTAAPAVAAPAPAPVKKSEPMLNDTESYFNTAIKNAVAKGDVDKALKLLDEAERLGSTSARSTFISSVKGKG : 4.94

Kindly note the recorded total protein half-life in vivo for MSDDNSHSSDTISNKKGFFSLLLSQLFHGEPKNRDELLALIRDSGQNDLIDEDTRDMLEGVMDIADQRVRDIMIPRSQMITLKRNQTLDECLDVIIESAHSRFPVISEDKDHIEGILMAKDLLPFMRSDAEAFSMDKVLRQAVVVPESKRVDRMLKEFRSQRYHMAIVIDEFGGVSGLVTIEDILELIVGEIEDEYDEEDDIDFRQLSRHTWTVRALASIEDFNEAFGTHFSDEEVDTIGGLVMQAFGHLPARGETIDIDGYQFKVAMADSRRIIQVHVKIPDDSPQPKLDE [P0AE78] , which is 5.83

Value of total protein half-life in vivo reported for the sequence MMDNMQTEAQPTRTRILNAAREIFSENGFHSASMKAICKSCAISPGTLYHHFISKEALIQAIILQDQERALARFREPIEGIHFVDYMVESIVSLTHEAFGQRALVVEIMAEGMRNPQVAAMLKNKHMTITEFVAQRMRDAQQKGEISPDINTAMTSRLLLDLTYGVLADIEAEDLAREASFAQGLRAMIGGILTAS [P0ACT6] is 6.05

Sample MLDLFKAIGLGLVVLLPLANPLTTVALFLGLAGNMNSAERNRQSLMASVYVFAIMMVAYYAGQLVMDTFGISIPGLRIAGGLIVAFIGFRMLFPQQKAIDSPEAKSKSEELEDEPSANIAFVPLAMPSTAGPGTIAMIISSASTVRQSSTFADWVLMVAPPLIFFLVAVILWGSLRSSGAIMRLVGKGGIEAISRLMGFLLVCMGVQFIINGILEIIKTYH [P0AEY1] ; total protein half-life in vivo observed: 5.73
